runDescription: Displacement of [3H]Ro15-1788 from benzodiazepine binding site of GABAA alpha-1 T206C beta2gamma2 receptor mutant expressed in HEK293T cells
Assay type: cell-based
conditionInfo: hek-293t
pKi: −log10 of the molar value.

moleculeSmiles | pKi
CN1CCN(C(=O)O[C@H]2c3nccnc3C(=O)N2c2ccc(Cl)cn2)CC1 | 9.08

----------
tgt: GABA A receptor alpha-2/beta-2/gamma-2 (Rattus norvegicus, UniProt P18508+P23576+P63138)
Sequence (P18508 whole entry): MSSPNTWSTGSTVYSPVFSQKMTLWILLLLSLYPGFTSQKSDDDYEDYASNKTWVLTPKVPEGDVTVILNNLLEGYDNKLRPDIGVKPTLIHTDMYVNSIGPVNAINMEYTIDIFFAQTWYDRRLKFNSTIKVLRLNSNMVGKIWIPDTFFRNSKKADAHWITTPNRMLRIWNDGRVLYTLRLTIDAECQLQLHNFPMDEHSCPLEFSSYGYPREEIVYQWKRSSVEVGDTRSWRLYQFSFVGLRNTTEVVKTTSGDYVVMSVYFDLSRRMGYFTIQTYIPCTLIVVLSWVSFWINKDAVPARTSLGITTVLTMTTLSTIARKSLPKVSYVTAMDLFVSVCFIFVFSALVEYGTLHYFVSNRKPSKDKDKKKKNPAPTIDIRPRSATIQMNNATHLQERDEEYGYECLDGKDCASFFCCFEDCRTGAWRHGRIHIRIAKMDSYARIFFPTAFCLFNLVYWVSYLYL
Sequence (P23576 whole entry): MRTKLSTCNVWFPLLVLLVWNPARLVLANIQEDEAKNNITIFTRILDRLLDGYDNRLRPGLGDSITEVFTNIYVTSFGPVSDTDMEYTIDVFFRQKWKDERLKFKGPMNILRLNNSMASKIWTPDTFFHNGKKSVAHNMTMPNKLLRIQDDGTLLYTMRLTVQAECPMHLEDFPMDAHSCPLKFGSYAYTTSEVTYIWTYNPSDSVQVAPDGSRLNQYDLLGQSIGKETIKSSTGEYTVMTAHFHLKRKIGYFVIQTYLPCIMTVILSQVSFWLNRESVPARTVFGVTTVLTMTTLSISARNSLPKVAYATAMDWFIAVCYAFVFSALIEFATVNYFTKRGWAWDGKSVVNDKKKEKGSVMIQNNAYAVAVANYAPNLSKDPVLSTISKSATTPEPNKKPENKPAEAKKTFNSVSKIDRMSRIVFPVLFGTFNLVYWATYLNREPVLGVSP
Sequence (P63138 whole entry): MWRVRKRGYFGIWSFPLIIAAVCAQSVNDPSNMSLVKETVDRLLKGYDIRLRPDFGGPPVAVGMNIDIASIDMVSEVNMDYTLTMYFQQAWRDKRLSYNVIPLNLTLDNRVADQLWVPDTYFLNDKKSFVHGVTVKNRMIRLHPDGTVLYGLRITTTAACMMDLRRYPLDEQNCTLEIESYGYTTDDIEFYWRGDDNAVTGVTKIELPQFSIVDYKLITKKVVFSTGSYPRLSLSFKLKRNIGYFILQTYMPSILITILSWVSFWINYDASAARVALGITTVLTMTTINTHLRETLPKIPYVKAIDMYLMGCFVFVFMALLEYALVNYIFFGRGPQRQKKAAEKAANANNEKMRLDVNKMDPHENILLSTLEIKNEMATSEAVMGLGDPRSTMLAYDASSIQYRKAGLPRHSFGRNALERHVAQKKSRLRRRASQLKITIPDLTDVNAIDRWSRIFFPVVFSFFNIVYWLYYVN
runDescription: Displacement of [3H]Ro-151788 from benzodiazepine binding site of GABAA alpha-2-beta-2-gamma-2 receptor expressed in HEK293T cells
pKi: −log10 of the molar value.

moleculeSmiles | pKi
CN1CCN(C(=O)O[C@H]2c3nccnc3C(=O)N2c2ccc(Cl)cn2)CC1 | 6.94

----------
runDescription: Displacement of [3H]Ro-151788 from benzodiazepine binding site of GABAA alpha-1-beta-2-gamma-2 T81C receptor mutant expressed in HEK293T cells
Type: cell-based
conditionInfo: hek-293t
pKi: −log10 of the molar value.

moleculeSmiles | pKi
CN1CCN(C(=O)O[C@H]2c3nccnc3C(=O)N2c2ccc(Cl)cn2)CC1 | 7.12

Where these numbers come from: ChEMBL document CHEMBL1152298
